Assay: Cytotoxicity test 2, PXB cells (MTT assay)
Format: cell-based
Conditions: PXB cells (fresh human hepatocytes)
Excerpt: PXB cells were used as test cells. PXB cells were fresh human hepatocytes isolated from chimeric mice with humanized liver and were maintained in a dHCGM medium for PXB cells. Both the cells and the medium are made by PhoenixBio Co., Ltd. […]
Assay readout: CC50 at 7 days

The recorded CC50 at 7 days for N#C[C@]1(CO)/C(=C\F)[C@@H](n2cnc3c(=O)[nH]c(N)nc32)C[C@@H]1O is > 100 µM

---

Assay: Cytotoxicity test 1, HepG2 cells (MTT assay)
Type: cell-based
Conditions: human
CC50 at 7 days for assorted compounds
Kindly answer with a numeric value in µM, unit omitted.

Examples with their reported CC50 at 7 days follow.
- Cpd smiles: "N#C[C@]1(CO)/C(=C\\F)[C@@H](n2cnc3c(=O)[nH]c(N)nc32)C[C@@H]1O"
  Assay readout: "CC50 at 7 days"
  Readout value: 50
- Cpd smiles: "C=C1[C@@H](n2cnc3c(=O)[nH]c(N)nc32)C[C@H](O)[C@@]1(O)CO"
  Assay readout: "CC50 at 7 days"
  Readout value: 67

Query compound follows.
// field: CC50 at 7 days; key: C=C1[C@@H](n2cnc3c(=O)[nH]c(N)nc32)C[C@H](O)[C@@]1(C#N)CO ; value = 89

---

Experiment: Cytotoxicity test 1, HepG2 cells (MTT assay)
Type: cell-based
Conditions: human
Assay readout: CC50 at 7 days

# count of solved cases: 2
- Cpd smiles: "C=C1[C@@H](n2cnc3c(=O)[nH]c(N)nc32)C[C@H](O)[C@]1(CO)CF"
  CC50 at 7 days: "> 100 µM"
- Cpd smiles: "C#C[C@]1(CO)C(=C)[C@@H](n2cnc3c(=O)[nH]c(N)nc32)C[C@@H]1O"
  CC50 at 7 days: "> 100 µM"

Per the record, C=C[C@]1(CO)C(=C)[C@@H](n2cnc3c(=O)[nH]c(N)nc32)C[C@@H]1O has CC50 at 7 days of > 100 µM
